# protocol.summary: Biodistribution of NBMI in plasma and tissues after oral gavage
# Type: in vivo, rat (Sprague Dawley)
# cond: male, Sprague Dawley, rat, bone marrow, po, 100 mg kg^−1
quantity.measured: concentration at 2 h (ng/g)

In [3]: df
Out[3]:
                                   compound     quantity_measured  value
0  O=C(NCCS)c1cccc(C(=O)NCCS)c1 [NBMI, N,N′-bis(2-mercaptoethyl)isophthalamide]  concentration at 2 h   65.7

* * *

# protocol.summary: Biodistribution of NBMI in plasma and tissues after oral gavage
# Type: in vivo, rat (Sprague Dawley)
# cond: male, Sprague Dawley, rat, brain, po, 100 mg kg^−1
quantity.measured: concentration at 24 h

                                   molecule      value
0  O=C(NCCS)c1cccc(C(=O)NCCS)c1 [NBMI, N,N′-bis(2-mercaptoethyl)isophthalamide]  2.09 ng/g

* * *

# protocol.summary: Biodistribution of NBMI in plasma and tissues after oral gavage
# Type: in vivo, rat (Sprague Dawley)
# cond: male, Sprague Dawley, rat, subcutaneous fat, oral, 100 mg kg^−1
quantity.measured: concentration at 1 h (ng/g)

>>> df
                                   compound  value
0  O=C(NCCS)c1cccc(C(=O)NCCS)c1 [NBMI, N,N′-bis(2-mercaptoethyl)isophthalamide]    420

* * *

# protocol.summary: Biodistribution of NBMI in plasma and tissues after oral gavage
# Assay type: in vivo, rat (Sprague Dawley)
# cond: male, Sprague Dawley, rat, subcutaneous fat, oral, 100 mg kg^−1
quantity.measured: concentration at 2 h (ng/g)

                                   molecule     quantity_measured  value
0  O=C(NCCS)c1cccc(C(=O)NCCS)c1 [NBMI, N,N′-bis(2-mercaptoethyl)isophthalamide]  concentration at 2 h    683

* * *

# protocol.summary: Biodistribution of NBMI in plasma and tissues after oral gavage
# Type: in vivo, rat (Sprague Dawley)
# cond: male, Sprague Dawley, rat, brain, po, 100 mg kg^−1
quantity.measured: concentration at 8 h (ng/g)

>>> print(df.to_string())
                                   molecule  quantity_unit  value
0  O=C(NCCS)c1cccc(C(=O)NCCS)c1 [NBMI, N,N′-bis(2-mercaptoethyl)isophthalamide]           ng/g   2.57

* * *

# protocol.summary: Biodistribution of NBMI in plasma and tissues after oral gavage
# Format: in vivo, rat (Sprague Dawley)
# cond: male, Sprague Dawley, rat, subcutaneous fat, oral, 100 mg kg^−1
quantity.measured: concentration at 8 h (ng/g)

In [3]: df
Out[3]:
                                   molecule     quantity_measured  value
0  O=C(NCCS)c1cccc(C(=O)NCCS)c1 [NBMI, N,N′-bis(2-mercaptoethyl)isophthalamide]  concentration at 8 h   17.3

* * *

# protocol.summary: Biodistribution of NBMI in plasma and tissues after oral gavage
# Format: in vivo, rat (Sprague Dawley)
# cond: male, Sprague Dawley, rat, spleen, po, 100 mg kg^−1
quantity.measured: concentration at 1 h

In [3]: df
Out[3]:
                                   compound      value
0  O=C(NCCS)c1cccc(C(=O)NCCS)c1 [NBMI, N,N′-bis(2-mercaptoethyl)isophthalamide]  12.1 ng/g
